# System Tested: huZIP12-ECD-GST (human, UniProt Q504Y0)
# Measurement Notes: SPR, extended dissociation re-test
pKd: −log10 of the molar value.
Parameter: pKd

Check out these entries, answers already filled in.
H3_W99H_VL-par (antibody, V domains shown) VH: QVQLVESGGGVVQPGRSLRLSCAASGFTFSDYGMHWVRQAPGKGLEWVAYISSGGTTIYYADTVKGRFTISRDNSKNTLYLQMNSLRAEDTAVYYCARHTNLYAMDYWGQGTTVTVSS VL: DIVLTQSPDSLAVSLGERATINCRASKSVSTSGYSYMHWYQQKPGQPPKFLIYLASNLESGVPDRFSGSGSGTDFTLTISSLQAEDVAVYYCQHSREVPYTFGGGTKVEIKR :: ~9.52
H3_W99H_L2 (antibody, V domains shown) VH: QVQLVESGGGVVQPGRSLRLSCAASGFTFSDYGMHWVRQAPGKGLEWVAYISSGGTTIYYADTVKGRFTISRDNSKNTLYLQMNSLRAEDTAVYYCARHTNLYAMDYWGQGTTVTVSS VL: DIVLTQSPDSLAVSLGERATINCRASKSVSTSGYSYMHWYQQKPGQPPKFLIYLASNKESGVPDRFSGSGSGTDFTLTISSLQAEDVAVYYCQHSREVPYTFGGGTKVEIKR :: ~9.52
H3_W99H_L1 (51B12_W99H_L1) (antibody, V domains shown) VH: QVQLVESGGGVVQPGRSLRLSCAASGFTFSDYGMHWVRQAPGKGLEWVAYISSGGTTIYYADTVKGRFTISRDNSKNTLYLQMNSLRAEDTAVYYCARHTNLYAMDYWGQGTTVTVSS VL: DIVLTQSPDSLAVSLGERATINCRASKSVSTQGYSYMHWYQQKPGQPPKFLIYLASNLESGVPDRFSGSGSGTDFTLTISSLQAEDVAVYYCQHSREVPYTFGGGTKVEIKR :: ~9.52

So for 51B12 parent (51B12_VH_VL-par) (antibody, V domains shown) VH: QVQLVESGGGVVQPGRSLRLSCAASGFTFSDYGMHWVRQAPGKGLEWVAYISSGGTTIYYADTVKGRFTISRDNSKNTLYLQMNSLRAEDTAVYYCARWTNLYAMDYWGQGTTVTVSS VL: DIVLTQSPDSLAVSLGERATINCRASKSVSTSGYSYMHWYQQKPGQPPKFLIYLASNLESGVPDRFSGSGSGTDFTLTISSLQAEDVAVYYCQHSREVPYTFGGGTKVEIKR , the logged pKd turned out to be 8.96

Sourced from patent US20260297183
